Here, each record is paired with measured IC50 data.
Biological target: glycine receptor of the NMDA receptor complex (Rattus norvegicus, UniProt P35439)
Construct: Freshly dissected cortices and hippocampi are homogenized in 0.32 M sucrose; from tissue; host or cells: rat cortex and hippocampus synaptic membranes
Test: [3H]-glycine binding assay (Test A)
Answer as a quantity: numeral, then unit.

Field: example entries. Status: answers known.
| Compound | IC50 |
| --- | --- |
| CC(C(=O)Nc1ccccc1)n1nc(O)c2[nH]c3cc(Cl)ccc3c(=O)c2c1=O (centres unmarked) [Example 1] | 240 nM |
| CC(c1ccccc1)n1nc(O)c2[nH]c3cc(Cl)ccc3c(=O)c2c1=O (centres unmarked) [Example 3] | 370 nM |

Q: So what's the measured IC50 for this one? CC(C)CC(C)n1nc(O)c2[nH]c3cc(Cl)ccc3c(=O)c2c1=O (centres unmarked) [Example 6]
A: 290 nM

Q: Again, but for CC(Cc1ccccc1)n1nc(O)c2[nH]c3cc(Cl)ccc3c(=O)c2c1=O (centres unmarked) [Example 5]
A: 300 nM

Q: Again, but for CCCC(C)n1nc(O)c2[nH]c3cc(Cl)ccc3c(=O)c2c1=O (centres unmarked) [Example 4]
A: 240 nM
